# assayComment: Drug level in clostridium difficile infected patient feces at 200 […], po every 12 hrs for 10 days by RP-HPLC/MS
# Type: ADME, organism-based
# Parameters: route oral
# conditionInfo: human, faeces, read-out: Activity
property: concentration at 10 days

Return reported concentration at 10 days; argument: CCc1c(Cl)c(O)c(Cl)c(O)c1C(=O)O[C@H]1[C@H](O)[C@H](OC)[C@H](OC/C2=C\C=C\C[C@H](O)/C(C)=C/[C@H](CC)[C@@H](O[C@@H]3OC(C)(C)[C@@H](OC(=O)C(C)C)[C@H](O)[C@@H]3O)/C(C)=C/C(C)=C/C[C@@H]([C@@H](C)O)OC2=O)O[C@@H]1C
442000 ng/g
